# Format: in vivo, Wistar rats
# reported conditions: male, Wistar, rat, plasma, po, 200 mg/kg
# Lookup of reported Tmax keyed by entry
Lab book: enter the figure in min, no units written.

INSERT INTO measurements (smiles_code, quantity_kind, readout_unit, val) VALUES
  ('C[C@]12CC[C@H](O)C[C@H]1CC[C@@H]1[C@@H]2[C@H](O)C[C@]2(C)[C@@H](c3ccc(=O)oc3)CC[C@]12O', 'Tmax', 'min', 48.8),
  ('CC(=O)O[C@H]1[C@H]2O[C@]23[C@@H]2CC[C@@H]4C[C@@H](O)CC[C@]4(C)[C@H]2CC[C@]3(C)[C@H]1c1ccc(=O)oc1', 'Tmax', 'min', 50),
  ('C[C@]12CC[C@H](O)C[C@@]1(O)CC[C@@H]1[C@@H]2CC[C@]2(C)[C@@H](c3ccc(=O)oc3)CC[C@]12O', 'Tmax', 'min', 31.3);

For the compound C[C@]12CC[C@H](O)C[C@H]1CC[C@@H]1[C@@H]2CC[C@]2(C)[C@@H](c3ccc(=O)oc3)CC[C@]12O , give its reported Tmax.
23.8

For the compound C[C@]12CC[C@H](O)C[C@H]1CC[C@@H]1[C@@H]2CC[C@]2(C)[C@@H](c3ccc(=O)oc3)[C@@H](O)[C@H]3O[C@]132 , give its reported Tmax.
52.5

For the compound C[C@]12CC[C@H](O)C[C@H]1CC[C@@H]1[C@@H]2CC[C@]2(C)[C@@H](c3ccc(=O)oc3)C[C@H]3O[C@]132 , give its reported Tmax.
20

* * *

# Type: in vivo, Wistar rats
# reported conditions: male, Wistar, rat, plasma, po, 200 mg/kg
# Lookup of reported MRT last keyed by entry
Lab book: enter the figure in h, no units written.

Recorded MRT last, per entry:
INSERT INTO measurements (smiles_code, readout_unit, val) VALUES
  ('C[C@]12CC[C@H](O)C[C@H]1CC[C@@H]1[C@@H]2CC[C@]2(C)[C@@H](c3ccc(=O)oc3)C[C@H]3O[C@]132', 'h', 0.836),
  ('C[C@]12CC[C@H](O)C[C@H]1CC[C@@H]1[C@@H]2CC[C@]2(C)[C@@H](c3ccc(=O)oc3)[C@@H](O)[C@H]3O[C@]132', 'h', 4.67);

Now examine the next entry.
For the compound C[C@]12CC[C@H](O)C[C@H]1CC[C@@H]1[C@@H]2[C@H](O)C[C@]2(C)[C@@H](c3ccc(=O)oc3)CC[C@]12O , give its reported MRT last.
2.5

* * *

# Format: in vivo, Wistar rats
# reported conditions: rat plasma, intragastric crude VB extract 200 mg/kg, n=4
# Lookup of reported Cmax keyed by entry
Please don't drop the unit; write it after the number.

Recorded Cmax, per entry:
INSERT INTO measurements (compound, quantity_kind, val) VALUES
  ('C[C@]12CC[C@H]3[C@@H](CC[C@]4(O)C[C@@H](O)CC[C@]34C=O)[C@@]1(O)CC[C@@H]2c1ccc(=O)oc1 [CS04, hellebrigenin]', 'Cmax', '13.35 ± 2.243 ng/mL'),
  ('C[C@]12CC[C@H](O)C[C@H]1CC[C@@H]1[C@@H]2[C@H](O)C(=O)[C@]2(C)[C@@H](c3ccc(=O)oc3)CC[C@]12O [CS03, arenobufagin]', 'Cmax', '466.5 ± 116.920 ng/mL'),
  ('C[C@]12CC[C@H](O)C[C@H]1CC[C@@H]1[C@@H]2C(=O)[C@H](O)[C@]2(C)[C@@H](c3ccc(=O)oc3)CC[C@]12O [CS01, pseudobufarenogin]', 'Cmax', '67.225 ± 14.218 ng/mL');

For the compound CC(=O)O[C@H]1[C@H]2O[C@]23[C@@H]2CC[C@]4(O)C[C@@H](O)CC[C@]4(C=O)[C@H]2CC[C@]3(C)[C@H]1c1ccc(=O)oc1 [CS11, 19-oxocinobufotalin] , give its reported Cmax.
2.752 ± 0.814 ng/mL

* * *

# Format: in vivo, Wistar rats
# reported conditions: rat plasma, intragastric crude VB extract 200 mg/kg, n=4
# Lookup of reported Tmax keyed by entry
Lab book: enter the figure in min, no units written.

Recorded Tmax, per entry:
INSERT INTO measurements (smiles_code, val) VALUES
  ('C[C@]12CC[C@H]3[C@@H](CC[C@]4(O)C[C@@H](O)CC[C@]34C=O)[C@@]1(O)CC[C@@H]2c1ccc(=O)oc1', 86.28),
  ('C[C@]12CC[C@H](O)C[C@H]1CC[C@@H]1[C@@H]2[C@H](O)C(=O)[C@]2(C)[C@@H](c3ccc(=O)oc3)CC[C@]12O', 56.3),
  ('CC(=O)O[C@H]1[C@H]2O[C@]23[C@@H]2CC[C@]4(O)C[C@@H](O)CC[C@]4(C=O)[C@H]2CC[C@]3(C)[C@H]1c1ccc(=O)oc1', 33.7);

Now examine the next entry.
For the compound C[C@]12CC[C@H](O)C[C@H]1CC[C@@H]1[C@@H]2C(=O)[C@H](O)[C@]2(C)[C@@H](c3ccc(=O)oc3)CC[C@]12O , give its reported Tmax.
45

* * *

# Format: in vivo, Wistar rats
# reported conditions: rat plasma, intragastric crude VB extract 200 mg/kg, n=4
quantity kind: AUC(0-t)

Recorded AUC(0-t), per entry:
INSERT INTO measurements (smiles_code, quantity_kind, val) VALUES
  ('C[C@]12CC[C@H]3[C@@H](CC[C@]4(O)C[C@@H](O)CC[C@]34C=O)[C@@]1(O)CC[C@@H]2c1ccc(=O)oc1', 'AUC(0-t)', '104.246 ± 20.661 ng·h/mL'),
  ('CC(=O)O[C@H]1[C@H]2O[C@]23[C@@H]2CC[C@]4(O)C[C@@H](O)CC[C@]4(C=O)[C@H]2CC[C@]3(C)[C@H]1c1ccc(=O)oc1', 'AUC(0-t)', '3.669 ± 0.511 ng·h/mL'),
  ('C[C@]12CC[C@H](O)C[C@H]1CC[C@@H]1[C@@H]2C(=O)[C@H](O)[C@]2(C)[C@@H](c3ccc(=O)oc3)CC[C@]12O', 'AUC(0-t)', '276.956 ± 60.642 ng·h/mL');

Now examine the next entry.
For the compound C[C@]12CC[C@H](O)C[C@H]1CC[C@@H]1[C@@H]2[C@H](O)C(=O)[C@]2(C)[C@@H](c3ccc(=O)oc3)CC[C@]12O , give its reported AUC(0-t).
1487.316 ± 407.361 ng·h/mL
